- System: MDR1 (Homo sapiens, UniProt P08183)
- Construct: The cDNA encoding respective transporters were synthetized and cloned by GenScript; host or cells: HEK293 (lentiviral transduction), membrane vesicles
- Sequence (P08183 whole entry): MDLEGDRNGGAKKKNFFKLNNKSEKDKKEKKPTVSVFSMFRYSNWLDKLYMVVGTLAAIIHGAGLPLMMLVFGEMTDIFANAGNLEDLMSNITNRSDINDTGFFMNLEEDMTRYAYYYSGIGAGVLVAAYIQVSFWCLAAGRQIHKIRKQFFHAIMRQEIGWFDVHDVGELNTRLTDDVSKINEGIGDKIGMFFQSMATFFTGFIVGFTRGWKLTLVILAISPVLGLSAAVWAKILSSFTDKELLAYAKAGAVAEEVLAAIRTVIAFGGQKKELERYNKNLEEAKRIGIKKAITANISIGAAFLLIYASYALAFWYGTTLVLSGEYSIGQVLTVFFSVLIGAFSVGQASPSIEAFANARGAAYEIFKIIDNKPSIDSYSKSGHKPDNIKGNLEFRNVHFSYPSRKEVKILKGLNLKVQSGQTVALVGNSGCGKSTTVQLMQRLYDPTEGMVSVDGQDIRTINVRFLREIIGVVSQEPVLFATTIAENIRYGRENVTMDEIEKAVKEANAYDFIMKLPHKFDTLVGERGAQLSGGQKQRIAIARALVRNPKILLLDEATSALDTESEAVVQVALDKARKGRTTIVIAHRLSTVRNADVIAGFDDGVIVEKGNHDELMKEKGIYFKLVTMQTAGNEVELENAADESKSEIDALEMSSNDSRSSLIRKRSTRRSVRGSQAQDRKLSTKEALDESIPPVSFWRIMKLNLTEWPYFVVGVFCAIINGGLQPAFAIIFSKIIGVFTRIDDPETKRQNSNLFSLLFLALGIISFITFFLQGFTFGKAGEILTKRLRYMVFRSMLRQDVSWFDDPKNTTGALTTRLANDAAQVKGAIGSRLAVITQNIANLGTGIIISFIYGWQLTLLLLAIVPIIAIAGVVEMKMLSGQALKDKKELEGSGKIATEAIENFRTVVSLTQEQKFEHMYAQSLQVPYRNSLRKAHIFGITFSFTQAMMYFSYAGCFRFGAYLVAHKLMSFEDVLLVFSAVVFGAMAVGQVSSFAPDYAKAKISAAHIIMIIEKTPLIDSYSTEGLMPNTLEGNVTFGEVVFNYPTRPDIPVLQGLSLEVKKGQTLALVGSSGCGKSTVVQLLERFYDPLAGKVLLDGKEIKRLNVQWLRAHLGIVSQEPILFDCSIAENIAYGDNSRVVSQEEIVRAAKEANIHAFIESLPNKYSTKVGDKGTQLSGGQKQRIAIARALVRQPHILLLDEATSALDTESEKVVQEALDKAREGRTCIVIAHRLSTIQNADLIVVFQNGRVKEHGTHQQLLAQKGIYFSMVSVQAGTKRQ
- Test Details: Vesicular transport inhibition assay, MDR1 membrane vesicles
- Format: biochemical
- Test Parameters: oxindole alkaloids; substrate NMQ; listed as Mitraphylline; read-out: IC50 (95% CI of IC50)
Assay Readout: IC50 (µM)
Quick note: give the figure in µM, leave out the unit.

Endpoint output: IC50 of COC(=O)C1=CO[C@@H](C)[C@H]2CN3CC[C@]4(C(=O)Nc5ccccc54)[C@@H]3C[C@H]12 [mitraphylline] . Value?
28.3

====

- System: OCT1 (Homo sapiens)
- Construct: expressed in transfected cells; host or cells: HEK293 (lentiviral transduction; cDNA synthesised by GenScript)
- Sequence (O15245 whole entry): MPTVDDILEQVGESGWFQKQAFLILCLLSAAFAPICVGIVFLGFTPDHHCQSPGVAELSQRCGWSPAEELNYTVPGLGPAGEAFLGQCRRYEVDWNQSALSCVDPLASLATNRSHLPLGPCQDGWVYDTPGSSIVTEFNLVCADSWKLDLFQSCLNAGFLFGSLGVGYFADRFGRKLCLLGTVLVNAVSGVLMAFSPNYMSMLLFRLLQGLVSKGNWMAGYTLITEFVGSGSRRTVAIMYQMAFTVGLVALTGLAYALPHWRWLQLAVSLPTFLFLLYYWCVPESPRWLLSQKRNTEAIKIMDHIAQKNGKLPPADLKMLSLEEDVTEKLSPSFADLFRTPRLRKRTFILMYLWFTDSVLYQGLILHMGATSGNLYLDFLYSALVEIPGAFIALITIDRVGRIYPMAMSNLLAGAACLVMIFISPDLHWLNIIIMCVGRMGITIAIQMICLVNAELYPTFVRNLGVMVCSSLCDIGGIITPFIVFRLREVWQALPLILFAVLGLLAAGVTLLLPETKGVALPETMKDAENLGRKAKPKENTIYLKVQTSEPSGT
- Test Details: Uptake inhibition assay, OCT1-overexpressing HEK293 cells
- Assay type: cell-based
- Test Parameters: oxindole alkaloids; substrate metformin; listed as Isopteropodine; read-out: IC50 (95% CI of IC50)
Assay Readout: IC50 (µM)
Quick note: give the figure in µM, leave out the unit.

Endpoint output: IC50 of COC(=O)C1=CO[C@@H](C)[C@@H]2CN3CC[C@@]4(C(=O)Nc5ccccc54)[C@@H]3C[C@H]12 . Value?
2.81

====

- System: OCT2 (Homo sapiens)
- Construct: expressed in transfected cells; host or cells: HEK293 (lentiviral transduction; cDNA synthesised by GenScript)
- Sequence (O15244 whole entry): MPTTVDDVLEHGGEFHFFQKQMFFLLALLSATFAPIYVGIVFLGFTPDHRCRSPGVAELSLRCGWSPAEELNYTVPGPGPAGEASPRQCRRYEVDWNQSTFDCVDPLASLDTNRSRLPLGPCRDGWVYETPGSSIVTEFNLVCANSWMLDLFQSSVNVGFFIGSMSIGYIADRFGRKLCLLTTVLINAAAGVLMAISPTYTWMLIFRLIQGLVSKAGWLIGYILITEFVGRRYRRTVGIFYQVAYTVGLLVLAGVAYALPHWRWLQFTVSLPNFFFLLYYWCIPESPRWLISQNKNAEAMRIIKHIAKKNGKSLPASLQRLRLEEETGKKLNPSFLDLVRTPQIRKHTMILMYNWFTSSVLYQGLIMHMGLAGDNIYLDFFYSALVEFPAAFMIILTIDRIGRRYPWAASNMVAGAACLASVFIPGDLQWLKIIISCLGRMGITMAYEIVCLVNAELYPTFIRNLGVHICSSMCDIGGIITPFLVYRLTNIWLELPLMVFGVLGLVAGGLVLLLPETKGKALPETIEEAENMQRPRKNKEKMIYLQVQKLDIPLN
- Test Details: Uptake inhibition assay, OCT2-overexpressing HEK293 cells
- Assay type: cell-based
- Test Parameters: oxindole alkaloids; substrate metformin; read-out: IC50 (95% CI of IC50)
Assay Readout: pIC50
Expect pIC50 as a plain number equal to -log10 of the molar concentration.

Endpoint output: pIC50 of COC(=O)C1=CO[C@@H](C)[C@@H]2CN3CC[C@@]4(C(=O)Nc5ccccc54)[C@@H]3C[C@H]12 . Value?
4.79

====

- System: OAT3 (Homo sapiens, UniProt Q8TCC7)
- Construct: expressed in transfected cells; host or cells: HEK293 (lentiviral transduction; cDNA synthesised by GenScript)
- Sequence (Q8TCC7 whole entry): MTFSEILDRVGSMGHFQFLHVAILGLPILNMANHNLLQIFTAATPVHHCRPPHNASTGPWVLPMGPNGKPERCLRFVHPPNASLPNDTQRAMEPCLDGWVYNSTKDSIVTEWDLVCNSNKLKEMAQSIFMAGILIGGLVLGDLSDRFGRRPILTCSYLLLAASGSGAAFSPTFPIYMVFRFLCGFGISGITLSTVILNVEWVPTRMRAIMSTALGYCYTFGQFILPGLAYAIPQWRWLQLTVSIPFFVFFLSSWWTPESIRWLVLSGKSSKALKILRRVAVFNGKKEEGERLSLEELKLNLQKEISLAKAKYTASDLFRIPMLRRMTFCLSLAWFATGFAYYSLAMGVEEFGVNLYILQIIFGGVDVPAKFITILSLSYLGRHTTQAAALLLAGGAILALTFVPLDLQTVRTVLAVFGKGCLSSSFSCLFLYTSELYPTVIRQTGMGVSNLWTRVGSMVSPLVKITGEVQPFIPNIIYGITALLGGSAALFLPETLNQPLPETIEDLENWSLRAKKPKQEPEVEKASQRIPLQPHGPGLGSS
- Test Details: Uptake inhibition assay, OAT3-overexpressing HEK293 cells
- Assay type: cell-based
- Test Parameters: oxindole alkaloids; substrate E3S; listed as Isopteropodine; read-out: IC50 (95% CI of IC50)
Assay Readout: pIC50
Expect pIC50 as a plain number equal to -log10 of the molar concentration.

Endpoint output: pIC50 of COC(=O)C1=CO[C@@H](C)[C@@H]2CN3CC[C@@]4(C(=O)Nc5ccccc54)[C@@H]3C[C@H]12 . Value?
4.33

====

- Test system: HEK293-OCT1
- Type: cell-based, human
Assay Readout: pIC50
Expect pIC50 as a plain number equal to -log10 of the molar concentration.

Endpoint output: pIC50 of N.N.[Cl][Pt][Cl] [cisplatin, reference compound] . Value?
5.04

====

- System: OCT1 (Homo sapiens)
- Construct: expressed in transfected cells; host or cells: HEK293 (lentiviral transduction; cDNA synthesised by GenScript)
- Test Details: Uptake inhibition assay, OCT1-overexpressing HEK293 cells
- Format: cell-based
- Test Parameters: oxindole alkaloids; substrate metformin; listed as Mitraphylline; read-out: IC50 (95% CI of IC50)
Assay Readout: pIC50
Expect pIC50 as a plain number equal to -log10 of the molar concentration.

For the record COC(=O)C1=CO[C@@H](C)[C@H]2CN3CC[C@]4(C(=O)Nc5ccccc54)[C@@H]3C[C@H]12 , what value of pIC50 is listed for OCT1 (Homo sapiens)?
5.15
